- method: chemical genetic growth profiling, strain panel (AID 1159580);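 note: tested at 20 µM; growth read once vehicle control cultures reached saturation at 30 °C; 1 = growth at the plate median or of vehicle wells; lower values mean less growth of the strain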
- measurement-parameters: S. cerevisiae deletion strains, growth OD, locus YML070W, strain DAK1, hits give low values
About 2,000 (36%) of roughly 5,500 compounds were called active. Another 18% or so got no clear call; they are omitted. This is one part of the list.
parameter: normalized growth
Respond numerically, and do not add a unit to the figure.

INSERT INTO assay_data (compound, parameter, measured_number) VALUES
  ('Clc1cc(Cl)cc(-c2nc(SCc3ccc(Cl)cc3Cl)n[nH]2)c1', 'normalized growth', 0.92),
  ('CC(C)(C)C(=O)N(Cc1cccnc1)Cc1ccc(Cl)cc1Cl', 'normalized growth', 0.907),
  ('Cc1csc(NC(=O)Nc2ccc(C(F)(F)F)cc2)c1Cl', 'normalized growth', 0.802),
  ('O=S(=O)(NC(=S)Nc1ccc(Cl)c(Cl)c1)c1ccccc1', 'normalized growth', 0.999),
  ('O=C(NCC1COc2ccccc2O1)c1ccc(Cl)cc1 (configuration not stated)', 'normalized growth', 0.827);

What value of normalized growth has been recorded for this entry: OC1CCN(c2cc(C(F)(F)F)nc3cc(Cl)cc(Cl)c23)CC1 0.969

Do the same for Cc1ccc(C)c(CSc2nc(C3CCCCC3)c(C#N)c(=O)[nH]2)c1 please 1
